# Target system: huCTLA4 (Homo sapiens, UniProt P16410)
# Sequence (P16410 36-223): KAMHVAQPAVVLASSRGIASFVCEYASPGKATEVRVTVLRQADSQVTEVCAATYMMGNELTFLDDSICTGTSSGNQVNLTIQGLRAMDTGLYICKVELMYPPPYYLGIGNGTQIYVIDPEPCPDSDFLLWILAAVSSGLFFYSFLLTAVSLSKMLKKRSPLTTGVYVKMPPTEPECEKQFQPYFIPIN
# Test details: Flow binding to CHO cells stably expressing CTLA4
# Design: huCTLA4 and huPD-L1, full-length mammalian surface expression constructs were generated; expressed in transfected cells; host or cells: CHO cells, lentiviral transduction, sorted to >98% purity
# Test context: Table E11; 33.3 nM; listed as WT CD80 ECD-Fc = 1.0
What CTLA4 Fold change to WT CD80 was measured for each of the following?
# respond with the number and nothing more

Prompt line: Dear colleague, I am looking for the recorded CTLA4 Fold change to WT CD80 of the following molecule: Q33R/E35D/M38I/M47L/V68M (protein, UniProt P33681 35-288, looked up, variant Q33R E35D M38I M47L V68M) T-lymphocyte activation …: VIHVTKEVKEVATLSCGHNVSVEELAQTRIYWRKDKKIVLTMMSGDLNIWPEYKNRTIFDITNNLSIMILALRPSDEGTYECVVLKYEKDAFKREHLAEVTLSVKADFPTPSISDFEIPTSNIRRIICSTSGGFPEPHLSWLENGEELNAINTTVSQDPETELYAVSSKLDFNMTTNHSFMCLIKYGHLRVNQTFNWNTTKQEHFPDNLLPSWAITLISVNGIFVICCLTYCFAPRCRERRRNERLRRESVRPV
Response line: 0.1

Prompt line: Dear colleague, I am looking for the recorded CTLA4 Fold change to WT CD80 of the following molecule: T13R/Q33L/E35D/M47L/V68M/L85M (protein, UniProt P33681 35-288, looked up, variant T13R Q33L E35D M47L V68M L85M) T-lymphocyte activation …: VIHVTKEVKEVARLSCGHNVSVEELAQTRIYWLKDKKMVLTMMSGDLNIWPEYKNRTIFDITNNLSIMILALRPSDEGTYECVVMKYEKDAFKREHLAEVTLSVKADFPTPSISDFEIPTSNIRRIICSTSGGFPEPHLSWLENGEELNAINTTVSQDPETELYAVSSKLDFNMTTNHSFMCLIKYGHLRVNQTFNWNTTKQEHFPDNLLPSWAITLISVNGIFVICCLTYCFAPRCRERRRNERLRRESVRPV
Response line: 0.1

Prompt line: Dear colleague, I am looking for the recorded CTLA4 Fold change to WT CD80 of the following molecule: T13R/Q33R/E35D/M38I/M47L/V68M/L85M (protein, UniProt P33681 35-288, looked up, variant T13R Q33R E35D M38I M47L V68M L85M) T-lymphocyte activation …: VIHVTKEVKEVARLSCGHNVSVEELAQTRIYWRKDKKIVLTMMSGDLNIWPEYKNRTIFDITNNLSIMILALRPSDEGTYECVVMKYEKDAFKREHLAEVTLSVKADFPTPSISDFEIPTSNIRRIICSTSGGFPEPHLSWLENGEELNAINTTVSQDPETELYAVSSKLDFNMTTNHSFMCLIKYGHLRVNQTFNWNTTKQEHFPDNLLPSWAITLISVNGIFVICCLTYCFAPRCRERRRNERLRRESVRPV
Response line: 12.6

Prompt line: Dear colleague, I am looking for the recorded CTLA4 Fold change to WT CD80 of the following molecule: E35D/M47V/N48KN68M/A71G/L85M (protein) VIHVTKEVKEVATLSCGHNVSVEELAQTRIYWQKDKKMVLTMMSGDVKIWPEYKNRTIFDITNNLSIMILGLRPSDEGTYECVVMKYEKDAFKREHLAEVTLSVKAD
Response line: 9.5

Prompt line: Dear colleague, I am looking for the recorded CTLA4 Fold change to WT CD80 of the following molecule: T13R/Q33R/E35D/M38I/M47L/V68M/E95V/L97Q (protein, UniProt P33681 35-288, looked up, variant T13R Q33R E35D M38I M47L V68M E95V L97Q) T-lymphocyte activation …: VIHVTKEVKEVARLSCGHNVSVEELAQTRIYWRKDKKIVLTMMSGDLNIWPEYKNRTIFDITNNLSIMILALRPSDEGTYECVVLKYEKDAFKRVHQAEVTLSVKADFPTPSISDFEIPTSNIRRIICSTSGGFPEPHLSWLENGEELNAINTTVSQDPETELYAVSSKLDFNMTTNHSFMCLIKYGHLRVNQTFNWNTTKQEHFPDNLLPSWAITLISVNGIFVICCLTYCFAPRCRERRRNERLRRESVRPV
Response line: 11.8
